System: 624824-186-R-J3-PDC multicell spheroids, viability
Experiment: Anticancer human tumor 624824-186-R-J3-PDC patient-derived colon adenocarcinoma cell line growth inhibition [PI3K]
Settings: curve of first compound; second compound 0.1 µM
Text: Combinatorial screen of targeted agents with the PI3K inhibitors inavolisib, alpelisib, duvelisib, and copanlisib in multi-cell type tumor spheroids A high-throughput screen of multi-cell type tumor spheroids was designed to identify active combinations of targeted small molecules and PI3K pathway inhibitors. […] Compounds. […] If the clinical Cmax for an agent had not been determined, the highest concentration tested was 10 microM. […]
Readout kind: IC50 (µM)

CC1(C)CCC(Nc2ncc(C(F)(F)F)c(-c3c[nH]c4c(P(C)(C)=O)c(C#N)ccc34)n2)CN1 (stereo unspecified) + Cc1nc(NC(=O)N2CCCC2C(N)=O)sc1-c1ccnc(C(C)(C)C(F)(F)F)c1 ... 5.42

[a] CCCS(=O)(=O)Nc1ccc(F)c(C(=O)c2c[nH]c3ncc(-c4ccc(Cl)cc4)cc23)c1F + COc1c(OCCCN2CCOCC2)ccc2c3n(c(=NC(=O)c4cnc(N)nc4)nc12)CCN3
[b] CC(C)NCC(C(=O)N1CCN(c2ncnc3c2C(C)CC3O)CC1)c1ccc(Cl)cc1 (stereo unspecified) + CC(Nc1ccc2c(c1)OCCn1cc(N3C(=O)OCC3C(F)F)nc1-2)C(N)=O
[c] CC(C)NCC(C(=O)N1CCN(c2ncnc3c2C(C)CC3O)CC1)c1ccc(Cl)cc1 (stereo unspecified) + COc1c(OCCCN2CCOCC2)ccc2c3n(c(=NC(=O)c4cnc(N)nc4)nc12)CCN3
Rank entries according to their IC50, from the largest number down. Arrange the labels as the request states and list them.
b, c, a

* * *

system: 624824-186-R-J3-PDC multicell spheroids, viability; experiment: Anticancer human tumor 624824-186-R-J3-PDC cell line growth inhibition [PI3K]; settings: second compound 0.00316 µM; first compound 0.316 µM; stronger effect = lower value;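 note: spheroids exposed to agents for seven days before luminescence read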;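 for viability, T/C: luminescent signal used as a stand-in for spheroid viability; percent viability relative to DMSO vehicle control wells taken as 100%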
viability, T/C by entry:
Respond numerically; units are % and should not be typed.

Some entries whose results are on file:
CC(Cn1ccc(-c2ccc(C#N)c(Cl)c2)n1)NC(=O)c1cc(C(C)O)[nH]n1 (stereo not given) + CC(Nc1ccc2c(c1)OCCn1cc(N3C(=O)OCC3C(F)F)nc1-2)C(N)=O ... 94.7
Cn1nccc1Nc1nccc(-c2ccn(C(CO)c3ccc(Cl)c(F)c3)c(=O)c2)n1 (stereo not given) + CC(Nc1ccc2c(c1)OCCn1cc(N3C(=O)OCC3C(F)F)nc1-2)C(N)=O ... 85
C=CC(=O)N1CCN(c2nc(=O)n(-c3c(C)ccnc3C(C)C)c3nc(-c4c(O)cccc4F)c(F)cc23)C(C)C1 (stereo not given) + COc1c(OCCCN2CCOCC2)ccc2c3n(c(=NC(=O)c4cnc(N)nc4)nc12)CCN3 ... 112

Note viability, T/C for the molecule shown: CCCS(=O)(=O)Nc1ccc(F)c(C(=O)c2c[nH]c3ncc(-c4ccc(Cl)cc4)cc23)c1F + CC(Nc1ccc2c(c1)OCCn1cc(N3C(=O)OCC3C(F)F)nc1-2)C(N)=O
98.9

Note viability, T/C for the molecule shown: CCCS(=O)(=O)Nc1ccc(F)c(C(=O)c2c[nH]c3ncc(-c4ccc(Cl)cc4)cc23)c1F + COc1c(OCCCN2CCOCC2)ccc2c3n(c(=NC(=O)c4cnc(N)nc4)nc12)CCN3
114
